# measured.target: VIM-1 (Pseudomonas aeruginosa, UniProt A0A0F7KYQ8)
# Construct: Li's Laboratory, Sichuan University (collaborator, a gift and not a purchase)
# protocol.notes: VIM-1 inhibition assay (FC5 fluorogenic substrate)
# Type: biochemical
# experimental.conditions: @ 100 μM; mean ± SD (n = 3)
measurement.kind: inhibition at 100 µM (%)
Numbers only; they are read as %.

Task: Fill in reported inhibition at 100 µM for this entry: Cc1ccccc1-c1nnc2n1CCCS2 [5b]
Output: 21

Task: Please supply the value of reported inhibition at 100 µM for the item CC(=O)Nc1ccc(Nc2ccc(-c3nnc4n3CCCS4)cc2)cc1 [5t]
Output: 14

Task: Provide one value: measured inhibition at 100 µM of Ic1ccc(-c2nnc3n2CCCS3)cc1 [5m]
Output: 34

Task: Please report inhibition at 100 µM for the following molecule: Ic1cccc(-c2nnc3n2CCCS3)c1 [5h]
Output: 27

Task: Supply inhibition at 100 µM value. Item: Brc1ccc(-c2nnc3n2CCCS3)cc1 [5l]
Output: 23

Task: Using the record for c1csc(-c2nnc3n2CCCS3)c1 [10b] , state its measured inhibition at 100 µM.
Output: 30

Task: Quote inhibition at 100 µM reported for Clc1cccc(-c2nnc3n2CCCS3)c1 [5f] please.
Output: 32

Task: Return inhibition at 100 µM for the following molecule: Cc1c(-c2nnc3n2CCCS3)cccc1[N+](=O)[O-] [5p]
Output: 19

Task: // fetch inhibition at 100 µM given entry CC(C)(C)c1ccc(-c2nnc3n2CCCS3)cc1 [5o]
Output: 27

Task: Quick one: give measured inhibition at 100 µM for c1coc(-c2nnc3n2CCCS3)c1 [10a]
Output: 24

Task: Note inhibition at 100 µM for the molecule shown: O=C(O)c1ccccc1-c1nnc2n1CCCS2 [compound 14]
Output: 22

Task: Let me know recorded inhibition at 100 µM for Brc1ccccc1-c1nnc2n1CCCS2 [5c] , thanks.
Output: 19

###

# measured.target: VIM-2 (Escherichia coli)
# Construct: Li's Laboratory, Sichuan University (collaborator, a gift and not a purchase)
# protocol.notes: VIM-2 inhibition assay (FC5 fluorogenic substrate)
# Format: biochemical
# experimental.conditions: @ 10 μM; mean ± SD (n = 3)
Exercise: for every item that follows, state its recorded inhibition at 10 µM.
Expressed in %, but write only the number.

Task: In one line, give reported inhibition at 10 µM of the entry Brc1ccccc1-c1nnc2n1CCCS2 .
Output: 26

Task: Give the measured inhibition at 10 µM for Cc1c(-c2nnc3n2CCCS3)cccc1[N+](=O)[O-]
Output: 42

Task: Complete the entry with inhibition at 10 µM for O=C(O)c1ccccc1-c1nnc2n1CCCS2
Output: 21

Task: Given Brc1ccc(-c2nnc3n2CCCS3)cc1 , respond with its inhibition at 10 µM.
Output: 53

Task: Please list inhibition at 10 µM recorded for the compound O=C(O)c1ccccc1-c1nnc2n1C(=O)CS2
Output: 18

Task: Query inhibition at 10 µM for Ic1cccc(-c2nnc3n2CCCS3)c1
Output: 7

###

# measured.target: VIM-1 (Pseudomonas aeruginosa)
# Construct: Li's Laboratory, Sichuan University (collaborator, a gift and not a purchase)
# protocol.notes: VIM-1 inhibition assay (FC5 fluorogenic substrate)
# experimental.conditions: 10 concentrations in threefold dilution, triplicate; read-out: IC50 against VIM-1
pIC50: −log10 of the molar value.
measurement.kind: pIC50

Task: Let me know recorded pIC50 for FC(F)(F)c1ccc(-c2nnc3n2CCCS3)cc1 , thanks.
Output: < 4.00

The origin of these recorded values is paper PMC6982996.
